Target: full-length BTK protein (Homo sapiens, UniProt Q06187)
Construct: Kd was measured using the full-length BTK protein by Eurofins DiscoverX; T7 phage fusion or DNA tag for qPCR (generic vendor protocol); purchased Eurofins DiscoverX
Sequence (Q06187 whole entry, the tested form may be a part): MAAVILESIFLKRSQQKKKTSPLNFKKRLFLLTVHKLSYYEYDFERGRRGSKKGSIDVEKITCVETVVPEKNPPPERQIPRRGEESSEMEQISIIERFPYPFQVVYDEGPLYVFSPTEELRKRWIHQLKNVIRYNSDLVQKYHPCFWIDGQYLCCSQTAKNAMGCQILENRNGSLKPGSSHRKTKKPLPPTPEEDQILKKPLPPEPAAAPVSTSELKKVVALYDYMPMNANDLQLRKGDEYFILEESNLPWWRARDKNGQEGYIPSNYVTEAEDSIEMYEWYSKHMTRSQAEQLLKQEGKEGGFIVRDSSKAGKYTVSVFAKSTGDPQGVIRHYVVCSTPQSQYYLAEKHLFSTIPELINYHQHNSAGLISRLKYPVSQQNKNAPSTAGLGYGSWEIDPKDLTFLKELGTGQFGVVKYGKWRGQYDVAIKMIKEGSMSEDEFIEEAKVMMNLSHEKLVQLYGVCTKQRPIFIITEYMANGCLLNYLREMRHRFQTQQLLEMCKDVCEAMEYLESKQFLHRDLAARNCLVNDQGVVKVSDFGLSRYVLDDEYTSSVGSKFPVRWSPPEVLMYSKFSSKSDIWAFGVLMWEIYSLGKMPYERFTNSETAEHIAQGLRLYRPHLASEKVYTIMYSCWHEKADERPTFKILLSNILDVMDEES
Test: BTK binding assay (Kd, Eurofins DiscoverX)
Settings: full-length BTK; standard assay buffer in the presence of DTT (6 mM) (DiMe compounds: BTK_+DTT per Supplementary Data 1); duplicates
Experimental: The dissociation equilibrium constant Kd was measured using the full-length BTK protein by Eurofins DiscoverX according to the following protocol: kinase-tagged T7 phage strains were prepared in an E. coli host derived from the BL21 strain. […] The kinase concentration in the eluates was measured by qPCR. […] Binding constants (Kd values) were calculated with a standard dose-response curve using the Hill equation: Response=Background+Signal−Background/1+KdHillSlope/Dose^HillSlope […]
endpoint: pKd
Entry type: numeric. Quantity: pKd, the -log10 of concentration in molar units.

Some solved cases for reference:
[[record]]
molecule = "CN(CCCNC(=O)CNc1cccc2c1C(=O)N(C1CCC(=O)NC1=O)C2=O)CCCC(=O)N1CCCC(n2nc(-c3ccc(Oc4ccccc4)cc3)c3c(N)ncnc32)C1 (stereo not drawn) [RNC-1]"
subject_of_test = "full-length BTK protein (Homo sapiens, UniProt Q06187)"
observed_result = 8.33

[[record]]
molecule = "CN(CCCNC(=O)CNc1cccc2c1C(=O)N(C1CCC(=O)NC1=O)C2=O)C(C)(C)/C=C/C(=O)N1CCC[C@@H](n2nc(-c3ccc(Oc4ccccc4)cc3)c3c(N)ncnc32)C1 (stereo partly drawn) [IRC-1-DiMe]"
subject_of_test = "full-length BTK protein (Homo sapiens, UniProt Q06187)"
observed_result = 7.96


Please turn your attention to the following entry.
Lookup: Tell me measured pKd for CN(CCCNC(=O)CNc1cccc2c1C(=O)N(C1CCC(=O)NC1=O)C2=O)C(C)(C)CC(C#N)C(=O)N1CCC[C@@H](n2nc(-c3ccc(Oc4ccccc4)cc3)c3c(N)ncnc32)C1 (stereo partly drawn) [RNC-1-CN-DiMe] please.
Found: 7.54
